Target: T1, Canine IL-31RA ECD-10His (canine, biotin-labeled in the Octet assay (site not stated))
T1 construct: The ELISA and Octet protocols say only 'IL-31RA' or 'canine IL-31RA'; also called cIL-31RA; canine IL-31 receptor alpha extracellular domain, HIS-tagged
T1 chain: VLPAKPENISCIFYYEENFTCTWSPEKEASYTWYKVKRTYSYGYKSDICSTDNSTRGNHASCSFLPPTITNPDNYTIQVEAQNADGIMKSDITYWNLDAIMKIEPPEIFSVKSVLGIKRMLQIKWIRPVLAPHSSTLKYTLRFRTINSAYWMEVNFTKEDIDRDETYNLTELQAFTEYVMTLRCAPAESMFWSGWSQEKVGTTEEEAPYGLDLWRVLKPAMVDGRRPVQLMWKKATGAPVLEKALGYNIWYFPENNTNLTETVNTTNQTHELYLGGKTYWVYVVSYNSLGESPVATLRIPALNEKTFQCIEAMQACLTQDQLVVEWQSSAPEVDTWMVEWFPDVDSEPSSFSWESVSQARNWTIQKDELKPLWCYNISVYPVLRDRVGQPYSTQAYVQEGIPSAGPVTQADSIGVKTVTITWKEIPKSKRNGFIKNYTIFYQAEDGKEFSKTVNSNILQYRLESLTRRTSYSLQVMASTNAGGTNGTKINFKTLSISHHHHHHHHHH
Assay: BLI (Octet HTX), biotin-labeled canine IL-31RA on SA biosensors, 1:1 fit
Items are presented alongside their recorded kon.
API: value field is a number in M⁻¹ s⁻¹; no unit string.

# binder 55B3 (antibody, V domains shown, Mouse monoclonal antibody from a hybridoma; also called mouse mAb 55B3) VH: EVQLQQSGPELVKPGASVKIPCKASGYTFTDYNMDWVKQSHGKSLEWIGHINPNTGGTIYNQKFKGKATLTVDKSSSTAYMDLRSLTSEDTAVYYCARWAQLLRQPYWYFDVWGTGTTVTVSS VL: DIKMTQSPSSMYASLGERVTITCKASQDINSYFNWVQQKPGKSPKTLIFRANRLVDGVPSRFSGSGSGQDYSLTINSLEYEDMGIYYCLQYDEFPLTFGAGTKLELK ; its kon = 568000

# binder 222E7 (antibody, V domains shown, Mouse monoclonal antibody from a hybridoma; also called mouse mAb 222E7) VH: EVQLQQSGPELVKPGSSVKIPCKASGYTFTDYNMDWVKQSHGKSLEWIGHINPNIGGTLYNQKFKGKATLSVDKSSSTAYMELRSLTSEDTAVYYCARWAQLQRQPYWYFDVWGPGTTVTVSS VL: DIKMTQSPSSMYASLGERVTITCKASQDINSYLNWFQQKPGKSPKTLIYRVNRLVDGVPSRFSGSGSGQDYSLTISSLEYEDMGIYYCLQYDEFPLTFGAGTKLELK ; its kon = 1.62e+06

# binder 65G9 (antibody, V domains shown, Mouse monoclonal antibody from a hybridoma; also called mouse mAb 65G9) VH: EFQLQQSGPELVKPGASVKISCKASGYSFTDYGMNWLKQINGKSLEWIAIINPNYGTASSNPKFKDKATLTVDHSSSTAYMQLSSLTSEDSAVYYCARAFDGYYFYWYFDVWGTGTTVTVSS VL: DVVMTQTPLSLPVSLGDQASISCRSSQSLIHTNGNTYLHWYLQKPGQSPKLLIYKVSNRFSGVPDRFSGSGSGTDFTLKISRLEAEDLGVYFCSQSTHVPLTFGAGTKLELR ; its kon = 787000

# binder 85C10 (antibody, V domains shown, Mouse monoclonal antibody from a hybridoma; also called mouse mAb 85C10) VH: EFQLQQSGPELVKPGASVKISCKASGYSFTDYSINWVKQSNGKSLEWIGVINPNYGTSSHNQKFKGKATMTVDQSSSTAYMQLNSLTSEDSAVYYCARALDDYYFYWYFDVWGIGTTVTVSS VL: DVVMTQTPLSLPVSLGDQASISCRSSQSLVHTNGNTYLHWYLQKPGQSPKLLIYKVSNRFSGVPDRFSGSGSGTDFTLKISRVEAEDLGVYFCSQTTHVPLTFGAGTKLELK ; its kon = 427000

# binder 51F8 (antibody, V domains shown, Mouse monoclonal antibody from a hybridoma; also called mouse mAb 51F8) VH: EVQLQQSVAELVRPGASVKLSCTASGFNIKNTFIHWVKQRPEQGLEWIGRIDPANGNTKYAPKFQGRATLTADTSSNTAYLQLSSLTSEDTAIYYCARYYYVSSYFDVWGTGTTVTVSS VL: SIVMTQTPKFLLVSAGDRVTITCKASQSVTNDVTWYQQKPGQSPKLLIFSASNRYTGVPDRFTGSGYGTDFTFTISTVQAEDLAVYFCQQDYSSPWTFGGGTKLEIK ; its kon = 684000

New cases:
# binder 74H10 (antibody, V domains shown, Mouse monoclonal antibody from a hybridoma; also called mouse mAb 74H10) VH: EVQLQQSGPELVKPGASMKIPCKTSGYTFTDYNMDWVKQSHGKSLEWIGHINPNNGGTLYNQKFKDKATLTVDRSSNTAYMELRSLTSEDTAVYYCARWAPLLRQPYWYFDVWGTGTTVTVSS VL: DIKMTQSPSSMYASLGERVTITCKASQDINSYLNWFQQKPGKSPKTLIYRADRLVDGVPSRFSGSGSGQDYSLTISSLEYEDMGIYYCLQYDEFPLTFGDGTKLELN ; its kon = 463000

# binder 218D9 (antibody, V domains shown, Mouse monoclonal antibody from a hybridoma; also called mouse mAb 218D9) VH: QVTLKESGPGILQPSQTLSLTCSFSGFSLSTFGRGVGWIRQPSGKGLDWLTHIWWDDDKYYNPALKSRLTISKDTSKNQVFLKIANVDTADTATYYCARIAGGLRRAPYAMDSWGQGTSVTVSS VL: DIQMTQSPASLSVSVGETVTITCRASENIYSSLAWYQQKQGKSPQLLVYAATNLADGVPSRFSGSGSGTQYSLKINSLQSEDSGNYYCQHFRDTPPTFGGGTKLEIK ; its kon = 664000
